# Tested target: ATM enzyme (human) (Homo sapiens, UniProt Q13315)
# Sequence (Q13315 whole entry): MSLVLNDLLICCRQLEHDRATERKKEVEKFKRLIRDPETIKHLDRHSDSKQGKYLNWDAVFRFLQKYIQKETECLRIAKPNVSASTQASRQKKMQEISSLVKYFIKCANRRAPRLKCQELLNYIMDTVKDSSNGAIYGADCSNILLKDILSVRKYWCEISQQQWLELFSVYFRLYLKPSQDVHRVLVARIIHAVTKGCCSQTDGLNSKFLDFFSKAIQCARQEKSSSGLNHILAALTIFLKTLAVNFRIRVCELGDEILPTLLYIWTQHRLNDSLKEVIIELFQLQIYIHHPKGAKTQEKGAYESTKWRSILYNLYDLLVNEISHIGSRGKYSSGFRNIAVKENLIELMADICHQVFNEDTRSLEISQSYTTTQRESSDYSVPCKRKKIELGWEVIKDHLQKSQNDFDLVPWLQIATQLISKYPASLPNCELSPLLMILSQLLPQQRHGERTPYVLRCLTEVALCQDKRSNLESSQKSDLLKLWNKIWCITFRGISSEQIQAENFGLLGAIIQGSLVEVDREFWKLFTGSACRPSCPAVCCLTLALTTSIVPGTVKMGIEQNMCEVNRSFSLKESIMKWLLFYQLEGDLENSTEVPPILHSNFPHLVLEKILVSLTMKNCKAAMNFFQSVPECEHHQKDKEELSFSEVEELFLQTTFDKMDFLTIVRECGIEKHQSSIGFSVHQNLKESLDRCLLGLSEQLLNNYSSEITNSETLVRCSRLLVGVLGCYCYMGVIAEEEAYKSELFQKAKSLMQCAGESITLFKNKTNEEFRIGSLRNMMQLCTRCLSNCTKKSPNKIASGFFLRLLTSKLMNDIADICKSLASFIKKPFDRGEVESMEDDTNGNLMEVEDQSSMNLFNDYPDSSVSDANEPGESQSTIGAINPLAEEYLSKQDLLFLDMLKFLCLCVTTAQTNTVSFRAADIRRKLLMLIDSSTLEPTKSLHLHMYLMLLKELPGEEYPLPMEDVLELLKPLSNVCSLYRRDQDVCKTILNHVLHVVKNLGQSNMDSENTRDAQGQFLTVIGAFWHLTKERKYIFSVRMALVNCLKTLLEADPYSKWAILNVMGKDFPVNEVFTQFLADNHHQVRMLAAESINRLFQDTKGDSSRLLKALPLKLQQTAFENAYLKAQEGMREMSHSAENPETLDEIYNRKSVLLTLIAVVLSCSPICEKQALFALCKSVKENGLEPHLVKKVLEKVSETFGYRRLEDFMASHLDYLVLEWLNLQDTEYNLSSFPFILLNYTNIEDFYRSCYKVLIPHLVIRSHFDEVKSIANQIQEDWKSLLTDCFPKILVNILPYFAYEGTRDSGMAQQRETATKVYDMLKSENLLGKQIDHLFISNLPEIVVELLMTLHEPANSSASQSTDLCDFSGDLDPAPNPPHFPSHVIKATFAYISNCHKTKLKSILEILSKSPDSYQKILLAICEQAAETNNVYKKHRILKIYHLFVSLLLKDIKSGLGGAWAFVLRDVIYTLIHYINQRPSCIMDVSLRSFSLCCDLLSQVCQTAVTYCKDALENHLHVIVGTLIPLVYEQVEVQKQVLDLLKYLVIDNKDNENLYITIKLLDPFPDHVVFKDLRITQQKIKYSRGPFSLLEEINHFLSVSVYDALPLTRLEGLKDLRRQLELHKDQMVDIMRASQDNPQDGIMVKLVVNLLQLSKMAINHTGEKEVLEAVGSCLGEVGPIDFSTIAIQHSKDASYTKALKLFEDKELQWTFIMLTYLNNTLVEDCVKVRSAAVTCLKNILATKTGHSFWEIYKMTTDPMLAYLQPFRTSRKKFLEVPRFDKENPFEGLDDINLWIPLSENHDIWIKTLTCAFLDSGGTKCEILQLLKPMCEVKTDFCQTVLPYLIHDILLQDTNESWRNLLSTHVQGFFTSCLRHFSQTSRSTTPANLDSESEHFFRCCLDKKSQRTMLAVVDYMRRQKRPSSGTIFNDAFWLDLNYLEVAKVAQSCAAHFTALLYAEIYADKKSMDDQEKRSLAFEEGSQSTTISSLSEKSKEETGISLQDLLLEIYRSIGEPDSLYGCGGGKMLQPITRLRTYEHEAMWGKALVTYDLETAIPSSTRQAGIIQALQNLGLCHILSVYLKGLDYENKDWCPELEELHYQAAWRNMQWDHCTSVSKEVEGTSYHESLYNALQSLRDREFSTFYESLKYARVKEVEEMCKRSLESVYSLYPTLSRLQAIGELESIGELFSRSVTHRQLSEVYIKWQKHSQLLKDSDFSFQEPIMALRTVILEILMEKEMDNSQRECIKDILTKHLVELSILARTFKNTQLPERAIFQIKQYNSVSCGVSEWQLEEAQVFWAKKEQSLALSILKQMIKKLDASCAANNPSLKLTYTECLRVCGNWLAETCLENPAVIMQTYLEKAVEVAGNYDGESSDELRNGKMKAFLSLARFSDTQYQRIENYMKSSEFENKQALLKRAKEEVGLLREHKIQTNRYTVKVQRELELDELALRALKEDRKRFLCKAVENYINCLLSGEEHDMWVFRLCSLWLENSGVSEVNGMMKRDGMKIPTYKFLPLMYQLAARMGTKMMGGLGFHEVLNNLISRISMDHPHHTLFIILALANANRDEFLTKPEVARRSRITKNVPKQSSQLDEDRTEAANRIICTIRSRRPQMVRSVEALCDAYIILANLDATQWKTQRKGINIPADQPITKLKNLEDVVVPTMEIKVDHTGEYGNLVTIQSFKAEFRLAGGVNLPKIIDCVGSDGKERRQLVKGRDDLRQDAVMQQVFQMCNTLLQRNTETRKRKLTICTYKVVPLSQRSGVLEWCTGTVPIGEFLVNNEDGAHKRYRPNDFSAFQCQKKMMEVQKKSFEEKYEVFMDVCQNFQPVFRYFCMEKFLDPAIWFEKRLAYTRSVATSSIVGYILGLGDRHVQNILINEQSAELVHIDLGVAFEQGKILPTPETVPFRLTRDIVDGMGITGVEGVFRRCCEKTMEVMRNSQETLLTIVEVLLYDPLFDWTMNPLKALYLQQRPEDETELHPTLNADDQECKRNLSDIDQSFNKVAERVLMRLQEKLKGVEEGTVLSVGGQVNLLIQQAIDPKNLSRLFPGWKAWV
# Assay summary: ATM kinase assay (HTRF, GST-cMyc-p53 substrate)
# Format: biochemical
# Condition parameters: 0.5 h; C 1 μm (final concentration of compound); read-out: Inh (%) of ATM kinase
Value type: inhibition at 1 µM (%)

| Compound | Units symbol | Result number |
| --- | --- | --- |
| CN(C)CCCOc1ccc(-c2ccc3ncc4nnc(N5CCCCC5)n4c3c2)cc1 [Example 20] | % | 100 |
| CN(C)CCCOc1cnc(-c2ccc3ncc4nnc(C5CCOCC5)n4c3c2)cn1 [Example 8] | % | 38 |
| CN(C)CCCOc1ccc(-c2ccc3ncc4nnc(C5CCOCC5)n4c3c2)nc1 [Example 5] | % | 96 |
| CN(C)C1CCN(c2ccc(-c3ccc4ncc5nnc(N6CCC(N(C)C)CC6)n5c4c3)cc2)CC1 [Example 64] | % | 98 |

====

# Tested target: ATM enzyme (human) (Homo sapiens, UniProt Q13315)
# Assay summary: ATM kinase assay (HTRF, GST-cMyc-p53 substrate)
# Assay type: biochemical
# Condition parameters: 0.5 h; C 0.1 μm (final concentration of compound); read-out: Inh (%) of ATM kinase
Value type: inhibition at 0.1 µM (%)

| Smiles | Result number |
| --- | --- |
| CN(C)CCCOc1ccc(-c2ccc3ncc4nnc(C5CCOCC5)n4c3n2)cc1 | 92 |
| CN(C)C1CCN(c2ccc(-c3ccc4ncc5nnc(CN6CCOCC6)n5c4n3)cc2)CC1 | 94 |
| C[C@@H]1CN(c2nnc3cnc4ccc(-c5ccc(N6CCC(N(C)C)CC6)cc5)cc4n23)C[C@H](C)N1C | 100 |
| CN(C)CCCOc1ccc(-c2ccc3ncc4nnc(C5CCOCC5)n4c3c2)nc1 | 47 |

====

# Tested target: ATM enzyme (human) (Homo sapiens, UniProt Q13315)
# Assay summary: ATM kinase assay (HTRF, GST-cMyc-p53 substrate)
# Format: biochemical
# Condition parameters: 0.5 h; C 1 μm (final concentration of compound); read-out: Inh (%) of ATM kinase

| Compound | inhibition at 1 µM, % |
| --- | --- |
| CNC1CCN(c2ccc(-c3ccc4ncc5nnc(C6CCOCC6)n5c4c3)cc2)CC1 [Example 42] | 99 |
| CN(C)CCCOc1ccc(-c2ccc3ncc4cnc(C5CCOCC5)n4c3c2)cc1 [Example 37] | 18 |
| CN(C)C1CCN(c2ccc(-c3ccc4ncc5nnc(CN6CCOCC6)n5c4n3)cc2)CC1 [Example 78] | 98 |
| CN(C)C1CCN(c2ccc(-c3ccc4ncc5nnc(C6CCOCC6)n5c4n3)cn2)CC1 [Example 76] | 100 |
| CN(C)CCC1CCN(c2ccc(-c3ccc4ncc5nnc(C6CCOCC6)n5c4c3)cc2)CC1 [Example 54] | 82 |
| CN(C)C1CCN(c2ccc(-c3ccc4ncc5nnc(C6CCOCC6)n5c4c3)cc2C(F)(F)F)CC1 [Example 47] | 100 |
| CN(C)CCCOc1ccc(-c2ccc3ncc4nnc(CN5CCOCC5)n4c3n2)cc1 [Example 79] | 94 |
| CN(C)CCCOc1ccc(-c2ccc3ncc4nnc(N5CCN(C)CC5)n4c3c2)cc1 [Example 22] | 100 |

====

# Tested target: ATM enzyme (human) (Homo sapiens)
# Assay summary: ATM kinase assay (HTRF, GST-cMyc-p53 substrate)
# Assay type: biochemical
# Condition parameters: 0.5 h; C 0.01 μm (final concentration of compound); read-out: Inh (%) of ATM kinase
# Experimental: In Vitro Inhibition of ATM by N,N-dimethyl-3-(4-(1-(tetrahydro-2H-pyran-4-yl)-[1,2,4]triazolo[4,3-a]quinoxalin-8-yl)phenoxy)propan-1-amine and its Analogues was Determined by ATM Kinase Assay The reaction was initiated by the addition of a Mg/ATP mixture and incubation for 30 minutes at room temperature, the reaction was quenched by the addition of a stop solution containing EDTA. […] ATM kinase inhibition was detected by using the method described above. […]

| Smiles | Units symbol | inhibition at 0.01 µM |
| --- | --- | --- |
| CN(C)CCCOc1ccc(-c2ccc3ncc4nnc(CN5CCOCC5)n4c3c2)cc1 | % | 43 |
| CCNC1CCN(c2ccc(-c3ccc4ncc5nnc(C6CCOCC6)n5c4c3)cc2)CC1 | % | 47 |
| C[C@@H]1CN(c2nnc3cnc4ccc(-c5ccc(OCCCN(C)C)cc5)cc4n23)C[C@H](C)N1C | % | 81 |
| CN(C)C1CCN(c2ccc(-c3ccc4ncc5nnc(C6CCOCC6)n5c4c3)cc2C(F)(F)F)CC1 | % | 72 |
| CN(C)CCCOc1ccc(-c2ccc3ncc4nnc(CN5CCOCC5)n4c3n2)cc1 | % | 21 |
| CN(C)CCCOc1ccc(-c2ccc3ncc4nnc(C5CCOCC5)n4c3c2)nc1 | % | 7 |
| CNC1CCN(c2ccc(-c3ccc4ncc5nnc(C6CCOCC6)n5c4c3)cc2)CC1 | % | 68 |
| CN1CCN(c2ccc(-c3ccc4ncc5nnc(C6CCOCC6)n5c4c3)cc2)CC1 | % | 8 |
| NC1CCN(c2ccc(-c3ccc4ncc5nnc(C6CCOCC6)n5c4c3)cc2)CC1 | % | 33 |
| CNC1CCN(c2ccc(-c3ccc4ncc5nnc(C6CCOCC6)n5c4n3)cc2)CC1 | % | 66 |
| CN(C)CCCOc1ccc(-c2ccc3ncc4nnc(N5CCCCC5)n4c3c2)cc1 | % | 79 |
| C[C@@H]1CN(c2nnc3cnc4ccc(-c5ccc(N6CCC(N(C)C)CC6)cc5)cc4n23)C[C@H](C)N1C | % | 89 |
| CN(C)C1CCN(c2ccc(-c3ccc4ncc5nnc(C6CCOCC6)n5c4c3)cc2F)CC1 | % | 67 |
| CN(C)CCCOc1ccc(-c2ccc3ncc4nnc(C5CCOCC5)n4c3n2)cc1 | % | 51 |
| CN(C)C1CCN(c2ccc(-c3ccc4ncc5nnc(CN6CCOCC6)n5c4n3)cc2)CC1 | % | 67 |
| C[C@@H]1CN(c2ccc(-c3ccc4ncc5nnc(C6CCOCC6)n5c4c3)cc2)C[C@H](C)N1C | % | 20 |
| CN(C)C1CCN(c2ccc(-c3ccc4ncc5nnc(C6CCOCC6)n5c4c3)c(F)c2)CC1 | % | 62 |
